Entries annotated with measured pest or weed control at 1000 g/ha
- Test system: weeds and/or crops
- experimentDescription: Post-emergence biological efficacy (Table 4)
- Type: in vivo
- cond: Setaria faberi, 312 h, SETFA, 1000 g/ha, evaluated after 13 days, read-out: damage to plant SETFA (100=total damage; 0=no damage)
Answer with a number only, understood to be in %.

Below, each entry is followed by its recorded pest or weed control at 1000 g/ha result.
* COc1cccc(C(F)(F)C(=O)O)c1C [Compound 1-242] | 10
* N#Cc1c(F)ccc(C(F)(F)C(=O)O)c1Cl [Compound 1-460] | 40

Consider now this further compound.
[Q] Consider the compound shown here: COc1cccc(Cl)c1C(F)(F)C(=O)O [Compound 1-65] What is its recorded pest or weed control at 1000 g/ha?
[A] 0
